Biological target: D(1A) dopamine receptor (Homo sapiens)
Assay: HTS Assay for Allosteric Agonists of the Human D1 Dopamine Receptor: Primary Screen for Antagonists (AID 488983);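 note: calcium flux response to an EC80 dopamine challenge measured with no-wash dye; nearly all actives have a fitted effect of over 65% in size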; note: potency is the fitted concentration of half-maximal effect
Settings: D1 receptor cell assay, antagonist mode, qHTS titration; series mostly up to 41.8 µM
Records with an inconclusive call do not appear. The source made the active and inactive calls. Calls come from the whole dose curve; as a rule, active = well fitted inhibition curve with a large enough effect; inconclusive = small, poorly fitted or top-dose-only effect, or effect the other way; inactive = flat fitted curve, though single readings scatter.
PROPERTY: Potency

Solved cases below.
{"COMPOUND": "O=C(O)C1=CC(=C(c2ccc(O)c(C(=O)O)c2)c2ccc(O)c(C(=O)O)c2)C=CC1=O", "Potency": "inactive"}
{"COMPOUND": "Cc1ccc([N+](=O)[O-])cc1S(=O)(=O)N(C)C", "Potency": "inactive"}
{"COMPOUND": "CCCCCCCCCCCCCCC[C@H](O)[C@H](N)CO", "Potency": "inactive"}
{"COMPOUND": "Cc1ccccc1/C=C/C1=NCCN1", "Potency": "12.6 µM (active)"}
{"COMPOUND": "Cc1cccc(C)c1OCC(N)C(C)C (centres undefined)", "Potency": "inactive"}

**Q:** Assign Potency to the following record: CN1CCC2(CCN3CCc4c(oc5ccccc45)C3C2)N(C)C1=O (centres undefined)
**A:** 10 µM (active)

**Q:** Output measured Potency for this item: Nc1ccc(N2C(=O)c3ccccc3C2=O)c(Cl)c1
**A:** inactive

**Q:** Output measured Potency for this item: NC(N)=NC(N)=Nc1cccc(Cl)c1
**A:** inactive

**Q:** Respond only with Potency recorded for CC[C@H](NC(=O)c1c(C)c(-c2ccccc2)nc2ccccc12)c1ccccc1
**A:** inactive

**Q:** Query Potency for N[C@H](C(=O)O)[C@H]1C[C@@H]1C(=O)O
**A:** inactive

**Q:** State its Potency for this compound: Cn1c(=O)c2[nH]c(C3CCCC3)nc2n(C)c1=O
**A:** inactive

**Q:** Please supply the value of reported Potency for the item OC[C@H]1NC[C@@H](O)[C@@H]1O
**A:** inactive

**Q:** # return recorded Potency for entry CN(C)S(=O)(=O)c1ccc2c(c1)/C(=C/c1cc3c([nH]1)CCCC3)C(=O)N2
**A:** inactive

**Q:** # return recorded Potency for entry O=C(O)C1CCNCC1
**A:** inactive

###

Assay: qHTS Assay for Lipid Storage Modulators (AID 1519)
Conditions: Drosophila S3 cells, BODIPY lipid droplet/cell ratio, laser cytometry; measured here: cell count channel max response; cells loaded with oleic acid
Inconclusive results are not listed.
PROPERTY: max response (%)
Write it as a number; the unit % goes unstated.

{"COMPOUND": "CCCc1c(OCCCOc2ccc(OCC(=O)O)cc2)ccc(C(C)=O)c1O", "EXPERIMENTAL RESULT": 51.1}
{"COMPOUND": "O=c1ccn([C@@H]2O[C@H](COP(=O)(O)OP(=O)(O)O)[C@@H](O)[C@H]2O)c(=O)[nH]1", "EXPERIMENTAL RESULT": -6.87}
{"COMPOUND": "NCCCCN=C(N)N", "EXPERIMENTAL RESULT": 4.55}
{"COMPOUND": "CC1=C(/C=C/C(C)=C/C=C/C(C)=C\\C(=O)O)C(C)(C)CCC1", "EXPERIMENTAL RESULT": 3.57}
{"COMPOUND": "CN1CCC2(CCN3CCc4c(oc5ccccc45)C3C2)N(C)C1=O (stereo unspecified)", "EXPERIMENTAL RESULT": 45.8}
{"COMPOUND": "Cn1c(=O)c2c(nc(/C=C/c3cccc(Cl)c3)n2C)n(C)c1=O", "EXPERIMENTAL RESULT": -60.2}
{"COMPOUND": "CCCCOC(=O)NS(=O)(=O)c1sc(CC(C)C)cc1-c1ccc(Cn2c(CC)nc3c(C)cc(C)nc32)cc1", "EXPERIMENTAL RESULT": 28.5}
{"COMPOUND": "O=c1[nH]ccc2c(O)cccc12", "EXPERIMENTAL RESULT": -28}

**Q:** Determine its reported max response: O=C(O)/C(=C/c1c(C(=O)O)[nH]c2cc(Cl)cc(Cl)c12)c1ccccc1
**A:** -8.09

**Q:** Return max response for the following compound: CCC1(O)CC2CN(CCc3c([nH]c4ccccc34)[C@@](C(=O)OC)(c3cc4c(cc3OC)N(C=O)C3[C@]45CCN4CC=C[C@@](CC)([C@@H](OC(C)=O)[C@]3(O)C(=O)OC)[C@H]45)C2)C1 (stereo partly specified)
**A:** -1.21

**Q:** Return the recorded max response value; entry: CCC(=O)N1CCN(C(=O)c2ccccc2)CC1
**A:** -9.69
